Reference source for all entries: patent US8288409B2

biological target: acetylcholine muscarinic M1 receptor (Homo sapiens, UniProt P11229); construct: expressed in transfected cells; host or cells: CHOnfat cells (CHO; also called CHOK1/hM1); assay: FLIPR intracellular calcium assay for M1 receptor positive allosteric modulator activity; format: cell-based
Sequence (P11229 whole entry): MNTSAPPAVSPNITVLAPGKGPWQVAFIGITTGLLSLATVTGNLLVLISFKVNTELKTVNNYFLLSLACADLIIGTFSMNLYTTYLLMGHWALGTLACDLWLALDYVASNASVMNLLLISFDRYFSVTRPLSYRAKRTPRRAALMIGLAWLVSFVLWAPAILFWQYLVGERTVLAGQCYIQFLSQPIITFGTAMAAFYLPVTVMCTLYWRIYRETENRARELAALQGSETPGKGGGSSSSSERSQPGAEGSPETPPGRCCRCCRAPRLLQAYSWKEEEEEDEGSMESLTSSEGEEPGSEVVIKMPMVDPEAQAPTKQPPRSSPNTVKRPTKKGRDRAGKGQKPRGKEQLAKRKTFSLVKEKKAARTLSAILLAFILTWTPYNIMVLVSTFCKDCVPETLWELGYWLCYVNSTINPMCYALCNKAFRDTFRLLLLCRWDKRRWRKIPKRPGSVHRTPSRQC
PARAMETER_MEASURED: pEC50
Numbers only, as −log10 of the molar value.

What value of pEC50 has been reported for the following compound? `O=C(O)c1cc(CN2CCC(c3ccccc3)CC2)c2ccccn2c1=O`
5.87

* * *

biological target: acetylcholine muscarinic M1 receptor (Homo sapiens, UniProt P11229); construct: expressed in transfected cells; host or cells: CHOnfat cells (CHO; also called CHOK1/hM1); assay: FLIPR intracellular calcium assay for M1 receptor positive allosteric modulator activity; type: cell-based; details: CHOnfat/hM1 cells, 4 min preincubation, then EC20 acetylcholine (3 nM final), intracellular Ca2+ by FLIPR384; read-out: IP Value (inflection point)
Kindly supply the reported pEC50 values for the records listed here.
Answers are plain numbers, as −log10 of the molar value.

Below, 7 compounds whose answers are already recorded.
COMPOUND	TEST_VALUE
O=C(O)c1cc(CN2CCC(c3c[nH]c4ccc(O)cc34)CC2)c2ccccn2c1=O [Example 83]	6.56
O=C(O)c1cc(CN2CCC(c3nc4cc(F)ccc4[nH]3)CC2)c2ccccn2c1=O [Example 86]	7.38
Cn1c(C2CCN(Cc3cc(C(=O)O)c(=O)n4ccccc34)CC2)nc2ccccc21 [Example 91]	4.52
O=C(O)c1cc(CN2CCC(c3ccc(C(F)(F)F)cc3)CC2)c2ccccn2c1=O [Example 1]	6.26
O=C(O)c1cc(CN2CCCCC2c2nc3cc(F)ccc3[nH]2)c2ccccn2c1=O (centres unmarked) [Example 14]	6.29
O=C(O)c1cc(CN2CCC(c3nc4ccccc4[nH]3)CC2)c2ccccn2c1=O [Example 85]	6.91
O=C(O)c1cc(CN2CCCC(O)C2)c2ccccn2c1=O (centres unmarked) [Example 24]	5.06

As a next step, examine the compound that follows.
What value of pEC50 has been reported for the following compound? O=C(O)c1cc(CN2CCCCC2c2ccncc2)c2ccccn2c1=O (centres unmarked) [Example 6]
5.65
